- Tested on: Plasmodium berghei
- assay_details: Screen against P. berghei liver stage (PbLuc), transformed with Luciferase, at 2uM
- Type: functional, HepG2
- measurement_context: tested at 2 uM
In all, about 68,000 compounds went through this assay and about 2,700 (4%) showed an effect of 50% or more. What follows is part of a selection rich in strong results, with near analogues and random picks from the rest.
reported_property: INHIBITION (%)
Give your result in % as a bare value.

Before answering, review these 5 worked examples.
{"compound": "Cc1ccccc1C(=O)NCC(O)c1ccc(F)c(F)c1 (centres undefined)", "result_unit": "%", "INHIBITION": 60.13}
{"compound": "O=C(NCC(O)c1ccc(F)c(F)c1)c1cccnc1O (centres undefined)", "result_unit": "%", "INHIBITION": -38.85}
{"compound": "Cc1cc(C)nc(C2CCN(C(=O)CCn3ncc4ccccc43)C2)n1 (centres undefined)", "result_unit": "%", "INHIBITION": 30.73}
{"compound": "Cc1nccn1-c1ccc(C(C)Nc2cnn(C)c(=O)c2Cl)cc1 (centres undefined)", "result_unit": "%", "INHIBITION": 39.58}
{"compound": "O=C(CNC(=O)Nc1c(F)cccc1Oc1ccccc1)NC1CC1", "result_unit": "%", "INHIBITION": -40.7}

Give Plasmodium berghei INHIBITION for CCNC(=O)C(C)NC(=O)Nc1ccccc1SC(F)(F)F (centres undefined) -16.18

Please answer likewise for C=Cc1ccc(C(=O)NC2CCCc3nc(N(C)C)ncc32)cc1 (centres undefined) 34.61

Try this compound next: Cc1ccnc(C2CCN(C(=O)CCn3ncc4ccccc43)C2)n1 (centres undefined) 72.83

Next record, please: CC(CNC1CCN(Cc2ccncc2)CC1)c1ccc(F)cc1F (centres undefined) 26.99
